- assayed target: T1, mouse P2X7 (mouse, UniProt Q9Z1M0 1-595)
- T1 construct: on transfected CHO or Hek293 cells, or endogenous on Yac-1 cells; also called mP2X7; mouse purinoceptor P2X7
- T1 sequence: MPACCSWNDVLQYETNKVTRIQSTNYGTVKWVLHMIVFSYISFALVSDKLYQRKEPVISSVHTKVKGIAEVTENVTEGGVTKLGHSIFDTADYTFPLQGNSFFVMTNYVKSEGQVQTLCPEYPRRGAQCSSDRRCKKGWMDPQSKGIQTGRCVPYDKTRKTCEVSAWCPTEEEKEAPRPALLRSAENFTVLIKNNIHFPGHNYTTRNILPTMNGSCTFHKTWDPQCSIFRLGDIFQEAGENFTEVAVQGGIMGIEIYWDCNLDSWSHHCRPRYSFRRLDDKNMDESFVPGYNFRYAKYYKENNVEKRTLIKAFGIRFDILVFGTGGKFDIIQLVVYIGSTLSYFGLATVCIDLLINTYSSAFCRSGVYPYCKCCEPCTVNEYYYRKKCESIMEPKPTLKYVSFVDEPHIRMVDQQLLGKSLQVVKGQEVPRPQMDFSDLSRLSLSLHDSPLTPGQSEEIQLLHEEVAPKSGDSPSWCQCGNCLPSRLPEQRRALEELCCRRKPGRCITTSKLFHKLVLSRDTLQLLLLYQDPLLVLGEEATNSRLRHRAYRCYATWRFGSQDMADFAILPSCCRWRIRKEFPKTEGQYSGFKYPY
- experiment notes: phage ELISA on fixed mP2X7-CHO vs untransfected CHO cells;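 also: phage culture supernatant diluted 10-fold, applied for 1 h to paraformaldehyde-fixed, BSA-blocked cells in 96-well plates, with bound phage read via HRP-linked anti-M13 antibody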
measurement label: Fold Cho P2X7/wt (phage ELISA)

Below, each entry is followed by its recorded Fold Cho P2X7/wt (phage ELISA) result.
[[record]]
binder = "P2X7PMP13G9 (VHH, family 23; on phage or c-myc/His6-tagged in assays) VHH: EVQLVESGGGLVQAGGSLRLSCVASGRTFSILTMGWFRQAPGKEREFVAAISGIGAIHYADSVKGRFTLSRDNARNTVSLHMNSLKPEDTAVYYCAAKANYESPSRETSYAYWGQGTQVTVSS"
measurement_label = "Fold Cho P2X7/wt (phage ELISA)"
result = "17 fold"

[[record]]
binder = "P2X7PMP18A7 (VHH, family 25; on phage or c-myc/His6-tagged in assays) VHH: EVQLVESGGDLVQPGGSLRLSCVASGFALEEHAIGWFRQAPGKEREGVSLSSYVGAVYYATSVKGRFTISRDNAKNTVYLQMNSLKPEDTAVYYCARGHFTYDDGRISIRSVDHWGKGTLVTVSS"
measurement_label = "Fold Cho P2X7/wt (phage ELISA)"
result = "14 fold"

[[record]]
binder = "P2X7PMP7B4 (VHH, family 10; on phage or c-myc/His6-tagged in assays) VHH: EVQLVESGGGLVQAGGSLRLSCAASGRNFGSYTMAWFRQAPGKGREFVSTINWSGGDTDYADSVKGRFTISRDNAKNTVYLQMDSLKPEDTAVYYCAAGLEYMSTIRYTYEYWGQGTQVTVSS"
measurement_label = "Fold Cho P2X7/wt (phage ELISA)"
result = "23 fold"

[[record]]
binder = "P2X7PMP8G12 (VHH, family 5, 3; on phage or c-myc/His6-tagged in assays; also called 8012) VHH: KVQLVESGGGLVQAGGSLRLSCAASGSFFRVNNMAWYRQGPGKQRELVADITRGDRTNYADSVNGRFTISRDNVRNTVYLQMNGLKPEDTAVYYCYATIELGVLEPRDYWGQGTQVTVSS"
measurement_label = "Fold Cho P2X7/wt (phage ELISA)"
result = "36 fold"

[[record]]
binder = "P2X7PMP7H6 (VHH, family 11; on phage or c-myc/His6-tagged in assays) VHH: EVQLVESGGGLVQPGGSLRLSCVVSGSMYRIDNMGWYRQAPGKQRELVATVTRGDITNYADSVKGRFTIGRDNAKNTVYLQMNSLKPADTAVYYCNIDSYIIGAGVRDYWGRGTQVTVSS"
measurement_label = "Fold Cho P2X7/wt (phage ELISA)"
result = "23 fold"


Value of measured Fold Cho P2X7/wt (phage ELISA) for the entry P2X7PMP7D5 (VHH, family 14; on phage or c-myc/His6-tagged in assays) VHH: EVQLVESGGGLVQAGDSLRLSCAASGRTFSSVAVGWFRQAPGKERDFVAWISWSGDSTYYADSVKGRFTASRDNVNNTVYLQMNSLKPEDTADYYCAAAWKYDRASYDFPEAYDYWGQGTQVTVSS : 14 fold

Value of measured Fold Cho P2X7/wt (phage ELISA) for the entry P2X7PMP2A6 (VHH, family 1; on phage or c-myc/His6-tagged in assays) VHH: EVQLVESGGDVVQAGGSLRLSCLASGFTFDDYAIGWFRQAPGKEREGISCISSTGNVFYADSVKGRFTISSDKEKNTLYLQMNSLEPEDTAVYHCAAGHFTVDSGKVLLRTDISSWGQGTQVTVSS : 8 fold

Value of measured Fold Cho P2X7/wt (phage ELISA) for the entry P2X7PMP13B5 (VHH, family 19; on phage or c-myc/His6-tagged in assays) VHH: EVQLVESGGGLVQAGDSLRLSCAASGRTFSSYAMGWFRQAPGKEREFVAAISLSGSMTYYADSMKGRFTISRDNAKNTVYLQMNSLKPEDTAVYYCAAEELGDGLGYLAYRYDYWGQGTQVTVSS : 28 fold

Value of measured Fold Cho P2X7/wt (phage ELISA) for the entry P2X7PMP7A4 (VHH, family 9; on phage or c-myc/His6-tagged in assays) VHH: EVQLVESGGGLVQAGGSLRVSCAASARTGSYSMGWFRQAPGKEREFVSTISWNGADTVYADSVKGRFTISRDNAKDTVYLQMNSLKPEDTAVYYCAGSITSYVSTWQHDYEYWGQGTQVTVSS : 32 fold

Value of measured Fold Cho P2X7/wt (phage ELISA) for the entry P2X7PMP1G6 (VHH, family 15; on phage or c-myc/His6-tagged in assays) VHH: EVQLVESGGGLVQAGGSLRLSCAASPGAFSSFNMGWFRQTPGKEREFVAATSWSDISTYYADSVKGRFTISRDNAKNTVTLEMNSLKPEDTAVYYCAAGYYRGGYLGYRLTLEGSYDVWGQGTQVTVSS : 12 fold
